Biological target: CFTR-mediated chloride transport (Homo sapiens, UniProt P13569)
Sequence (P13569 whole entry, looked up): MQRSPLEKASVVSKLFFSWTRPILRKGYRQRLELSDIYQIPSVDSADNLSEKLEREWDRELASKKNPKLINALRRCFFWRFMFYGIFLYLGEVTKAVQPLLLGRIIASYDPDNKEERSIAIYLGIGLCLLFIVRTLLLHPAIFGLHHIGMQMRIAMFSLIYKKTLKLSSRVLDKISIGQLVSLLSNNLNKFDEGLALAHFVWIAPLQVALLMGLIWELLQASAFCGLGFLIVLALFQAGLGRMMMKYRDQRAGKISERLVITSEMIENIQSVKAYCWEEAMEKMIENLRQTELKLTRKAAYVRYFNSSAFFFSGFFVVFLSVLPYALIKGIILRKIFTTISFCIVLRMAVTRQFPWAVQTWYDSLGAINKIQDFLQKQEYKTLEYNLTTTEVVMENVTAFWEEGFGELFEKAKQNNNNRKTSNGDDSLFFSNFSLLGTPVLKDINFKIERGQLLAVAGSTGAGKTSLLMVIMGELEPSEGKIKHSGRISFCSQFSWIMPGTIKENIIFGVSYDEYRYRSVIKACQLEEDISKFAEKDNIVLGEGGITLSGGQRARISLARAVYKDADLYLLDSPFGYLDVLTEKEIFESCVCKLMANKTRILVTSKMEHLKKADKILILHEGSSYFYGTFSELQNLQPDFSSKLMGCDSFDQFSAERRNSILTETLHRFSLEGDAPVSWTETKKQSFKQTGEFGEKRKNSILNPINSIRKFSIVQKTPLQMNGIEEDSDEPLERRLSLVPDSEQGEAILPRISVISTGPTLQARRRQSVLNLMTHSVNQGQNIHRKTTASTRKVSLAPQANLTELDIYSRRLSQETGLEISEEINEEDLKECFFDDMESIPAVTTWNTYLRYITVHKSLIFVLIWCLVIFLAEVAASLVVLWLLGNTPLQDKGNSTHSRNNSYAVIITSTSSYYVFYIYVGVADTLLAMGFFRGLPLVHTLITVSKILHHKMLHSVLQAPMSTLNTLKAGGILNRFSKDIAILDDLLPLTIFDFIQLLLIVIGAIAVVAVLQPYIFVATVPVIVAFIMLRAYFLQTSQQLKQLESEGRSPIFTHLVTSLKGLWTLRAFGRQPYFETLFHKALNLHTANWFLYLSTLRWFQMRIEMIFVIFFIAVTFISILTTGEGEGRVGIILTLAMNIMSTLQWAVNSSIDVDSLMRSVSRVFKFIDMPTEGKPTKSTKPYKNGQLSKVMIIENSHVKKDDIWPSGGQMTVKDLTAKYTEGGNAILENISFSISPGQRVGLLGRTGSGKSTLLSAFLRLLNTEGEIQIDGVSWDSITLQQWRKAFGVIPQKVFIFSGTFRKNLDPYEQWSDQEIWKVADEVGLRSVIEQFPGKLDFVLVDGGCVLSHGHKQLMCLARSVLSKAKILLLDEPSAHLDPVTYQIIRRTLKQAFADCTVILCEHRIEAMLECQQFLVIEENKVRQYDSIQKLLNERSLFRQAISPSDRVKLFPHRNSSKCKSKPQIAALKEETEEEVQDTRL
Format: cell-based
Conditions: enteroid cells incubated with test compound 18-24 hours; acute 10 μM forskolin and 300 nM Compound III; % of chloride transport with 3 μM Compound A, 3 μM Compound II and 300 nM acute Compound III triple combination control
test-readout: Max. Activity

CC1(C)C[C@H]2CCCOc3cccc(n3)S(=O)(=O)NC(=O)c3ccc(-n4ccc(OCCC5(C(F)(F)F)CC5)n4)nc3N1C2 (single isomer, unassigned) [Compound 49] :: +++ (+++ is >60%)
CC1(C)CC2CCCCNc3ccc(nc3)S(=O)(=O)NC(=O)c3ccc(-n4ccc(OCCC5(C(F)(F)F)CC5)n4)nc3N1C2 (stereo not drawn) [Compound 123] :: +++ (+++ is >60%)
